# test.target: PLK1 (Homo sapiens)
# Construct: endogenous in cells; host or cells: HeLa
# Sequence (P53350 whole entry): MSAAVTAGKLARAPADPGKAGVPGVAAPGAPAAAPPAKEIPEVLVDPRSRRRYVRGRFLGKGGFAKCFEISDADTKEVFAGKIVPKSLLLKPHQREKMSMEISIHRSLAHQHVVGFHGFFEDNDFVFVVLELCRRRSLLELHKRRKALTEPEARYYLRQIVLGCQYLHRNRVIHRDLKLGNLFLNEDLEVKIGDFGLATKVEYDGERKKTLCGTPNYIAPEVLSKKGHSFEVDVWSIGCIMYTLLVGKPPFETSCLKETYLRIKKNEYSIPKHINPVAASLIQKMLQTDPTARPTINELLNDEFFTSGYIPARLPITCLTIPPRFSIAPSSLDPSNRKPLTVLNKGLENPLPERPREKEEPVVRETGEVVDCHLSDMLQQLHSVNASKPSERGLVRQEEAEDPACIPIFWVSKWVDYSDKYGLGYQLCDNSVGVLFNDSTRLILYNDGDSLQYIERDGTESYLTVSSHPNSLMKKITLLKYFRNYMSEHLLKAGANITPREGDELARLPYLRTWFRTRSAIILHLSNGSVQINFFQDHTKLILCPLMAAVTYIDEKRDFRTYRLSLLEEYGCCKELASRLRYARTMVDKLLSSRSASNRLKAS
# assay.text: PLK1 protein degradation in HeLa cells, Western blotting (PLK1/GAPDH ratio)
# Format: cell-based
# experimental.setup: thymidine block and release, 6 hours compound incubation, 10 points three-fold from 3 μM, PLK1 to GAPDH ratio, read-out: Dmax
measured.quantity: Dmax

compound=COc1cc(C(=O)NC2CCN(CCCCCCCCOc3cc(-c4scnc4C)ccc3CNC(=O)[C@@H]3C[C@@H](O)CN3C(=O)[C@@H](NC(=O)C3(F)CC3)C(C)(C)C)CC2)c(F)cc1Nc1ncc2c(n1)N(C1CCCC1)CC(F)(F)C(=O)N2C measured_result="60 to 80%"
compound="COc1cc(C(=O)NC2CCN(CCOCCCOCCNc3cccc4c3C(=O)N(C3CCC(=O)NC3=O)C4=O)CC2)c(F)cc1Nc1ncc2c(n1)N(C1CCCC1)CC(F)(F)C(=O)N2C (stereo not shown)" measured_result="≥ 80%"
compound="COc1cc(C(=O)N[C@@H]2CCN(C(=O)CCN3CCN(c4ccc5c(c4)C(=O)N(C4CCC(=O)NC4=O)C5=O)CC3)C2)c(F)cc1Nc1ncc2c(n1)N(C1CCCC1)CC(F)(F)C(=O)N2C (stereo partly shown)" measured_result="≥ 80%"
compound="COc1cc(C(=O)NC2CCN(C(=O)CCN3CCN(c4cccc5c4C(=O)N(C4CCC(=O)NC4=O)C5=O)CC3)CC2)c(F)cc1Nc1ncc2c(n1)N(C1CCCC1)CC(F)(F)C(=O)N2C (stereo not shown)" measured_result="≥ 80%"
compound="COc1cc(C(=O)NC2CCN(C[C@@H]3C[C@@H]3CNc3cccc4c3C(=O)N(C3CCC(=O)NC3=O)C4=O)CC2)c(F)cc1Nc1ncc2c(n1)N(C1CCCC1)CC(F)(F)C(=O)N2C (stereo partly shown)" measured_result="60 to 80%"
compound="COc1cc(C(=O)N[C@H]2CCN(C(=O)COCCOCCNc3cccc4c3C(=O)N(C3CCC(=O)NC3=O)C4=O)C2)c(F)cc1Nc1ncc2c(n1)N(C1CCCC1)CC(F)(F)C(=O)N2C (stereo partly shown)" measured_result="≥ 80%"
compound="COc1cc(C(=O)NC2CCN(CCOCCNc3cccc4c3C(=O)N(C3CCC(=O)NC3=O)C4=O)CC2)c(F)cc1Nc1ncc2c(n1)N(C1CCCC1)CC(F)(F)C(=O)N2C (stereo not shown)" measured_result="≥ 80%"
compound="COc1cc(C(=O)NC2CCN(CCOCCN(C)CCNc3cccc4c3C(=O)N(C3CCC(=O)NC3=O)C4=O)CC2)c(F)cc1Nc1ncc2c(n1)N(C1CCCC1)CC(F)(F)C(=O)N2C (stereo not shown)" measured_result="60 to 80%"
compound="COc1cc(C(=O)NC2CCN(C(=O)COCCOCCOCCOCCNc3cccc4c3C(=O)N(C3CCC(=O)NC3=O)C4=O)CC2)c(F)cc1Nc1ncc2c(n1)N(C1CCCC1)CC(F)(F)C(=O)N2C (stereo not shown)" measured_result="≥ 80%"
compound="COc1cc(C(=O)N[C@H]2CCN(C(=O)CCCC(=O)N3CCN(c4cccc5c4C(=O)N(C4CCC(=O)NC4=O)C5=O)CC3)C2)c(F)cc1Nc1ncc2c(n1)N(C1CCCC1)CC(F)(F)C(=O)N2C (stereo partly shown)" measured_result="60 to 80%"
compound="COc1cc(C(=O)NC2CCN(CCCCCNc3cccc4c3C(=O)N(C3CCC(=O)NC3=O)C4=O)CC2)c(F)cc1Nc1ncc2c(n1)N(C1CCCC1)CC(F)(F)C(=O)N2C (stereo not shown)" measured_result="60 to 80%"
compound="COc1cc(C(=O)NC2CCN(C(=O)CCOCCNc3cccc4c3C(=O)N(C3CCC(=O)NC3=O)C4=O)C2)c(F)cc1Nc1ncc2c(n1)N(C1CCCC1)CC(F)(F)C(=O)N2C (stereo not shown)" measured_result="≥ 80%"
compound="COc1cc(C(=O)NC2CCN(CCOCCOCCOCCOCC(=O)Nc3cccc4c3C(=O)N(C3CCC(=O)NC3=O)C4=O)CC2)c(F)cc1Nc1ncc2c(n1)N(C1CCCC1)CC(F)(F)C(=O)N2C (stereo not shown)" measured_result="60 to 80%"
compound="COc1cc(C(=O)NC2CCN(CCCCOCCCOCCOCCNc3cccc4c3C(=O)N(C3CCC(=O)NC3=O)C4=O)CC2)c(F)cc1Nc1ncc2c(n1)N(C1CCCC1)CC(F)(F)C(=O)N2C (stereo not shown)" measured_result="≥ 80%"
compound="COc1cc(C(=O)NC2CCN(CCCCCCCCCCCCCNc3cccc4c3C(=O)N(C3CCC(=O)NC3=O)C4=O)CC2)c(F)cc1Nc1ncc2c(n1)N(C1CCCC1)CC(F)(F)C(=O)N2C (stereo not shown)" measured_result="< 60%"
compound="COc1cc(C(=O)NC2CCN(CCCCCCCCNc3cccc4nnn(C5CCC(=O)NC5=O)c(=O)c34)CC2)c(F)cc1Nc1ncc2c(n1)N(C1CCCC1)CC(F)(F)C(=O)N2C (stereo not shown)" measured_result="≥ 80%"
compound="COc1cc(C(=O)NC2CCN(CCOCCCOCCOCCOCCNc3cccc4c3C(=O)N(C3CCC(=O)NC3=O)C4=O)CC2)c(F)cc1Nc1ncc2c(n1)N(C1CCCC1)CC(F)(F)C(=O)N2C (stereo not shown)" measured_result="≥ 80%"
compound="COc1cc(C(=O)N[C@H]2CCN(C(=O)CCC(=O)N3CCN(c4ccc5c(c4)C(=O)N(C4CCC(=O)NC4=O)C5=O)CC3)C2)ccc1Nc1ncc2c(n1)N(C1CCCC1)CC(F)(F)C(=O)N2C (stereo partly shown)" measured_result="60 to 80%"
compound="COc1cc(C(=O)NC2CCN(Cc3cncc(CNC(=O)COc4cccc5c4C(=O)N(C4CCC(=O)NC4=O)C5=O)c3)CC2)c(F)cc1Nc1ncc2c(n1)N(C1CCCC1)CC(F)(F)C(=O)N2C (stereo not shown)" measured_result="60 to 80%"
